Where do the numbers come from? From paper PMC6332334.

Target: Trypanosoma cruzi triosephosphate isomerase (TcTIM) (Trypanosoma cruzi)
Construct: made in house; host or cells: Escherichia coli
Sequence (P52270 whole entry): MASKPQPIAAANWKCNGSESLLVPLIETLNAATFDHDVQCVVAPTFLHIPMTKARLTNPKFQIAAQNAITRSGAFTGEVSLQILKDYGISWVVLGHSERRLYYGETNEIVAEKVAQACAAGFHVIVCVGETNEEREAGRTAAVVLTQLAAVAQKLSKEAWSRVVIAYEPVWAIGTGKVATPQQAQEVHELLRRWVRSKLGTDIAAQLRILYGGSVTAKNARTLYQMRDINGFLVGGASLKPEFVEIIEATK
Assay: Inhibition of enzymatic activity of TcTIM
Type: biochemical
Details: percentage of enzymatic inhibition at 25 μM; read-out: TcTIM % Inhib25
Outcome label depends on inhibition at 25 µM relative to 60%: at/above gives true (1), below gives false (0).

Could you tell me if the measured inhibition at 25 µM of `COc1ccc(-c2cc(=[S+]CC(C)=O)ss2)cc1` reaches 60% or more? true (1)

Could you tell me if the measured inhibition at 25 µM of `CC(=O)COc1ccc(C2=C/C(=C(\SCC(C)=O)C(C)=O)SS2)cc1` reaches 60% or more? false (0)

Could you tell me if the measured inhibition at 25 µM of `O=C(CS/C(C(=O)c1ccccc1)=C1\C=C(c2ccc(O)cc2)SS1)c1ccccc1` reaches 60% or more? true (1)

Could you tell me if the measured inhibition at 25 µM of `COc1ccc(C2=C/C(=C(\SCC(=O)c3ccccc3)C(=O)c3ccccc3)SS2)cc1` reaches 60% or more? true (1)

Could you tell me if the measured inhibition at 25 µM of `COc1ccc(C2=C/C(=C(\SCC(=O)c3ccc4ccccc4c3)C(=O)c3ccc4ccccc4c3)SS2)cc1` reaches 60% or more? false (0)

Could you tell me if the measured inhibition at 25 µM of `O=C(C[S+]=c1cc(-c2ccc(O)cc2)ss1)c1ccc2ccccc2c1` reaches 60% or more? true (1)
